// data source = patent US12522584B2

For each entry below, report its Tmax value.
# procedure_details: in vivo
# particulars: male, SD, rat, po, 25 mg/kg
Give bare numbers, in min.

| compound | endpoint | number |
| --- | --- | --- |
| CON=C(C)C(=O)N1CC2(CC(Nc3cc(C(=O)NC[C@H](O)CN4CCc5ccccc5C4)ncn3)C2)C1 [PR-10] | Tmax | 25 |

Next item in the queue.
query: For the compound CON=C(C)C(=O)N1CCC2(CC1)CC(Nc1cc(C(=O)NC[C@H](O)CN3CCc4ccccc4C3)ncn1)C2 [PR-13] , what Tmax is on record?
result: 50

###

# procedure_details: in vivo
# particulars: male, SD, rat, po, 25 mg/kg
endpoint: Cmax

| test_smiles | Cmax |
| --- | --- |
| CON=C(C)C(=O)N1CC2(CC(Nc3cc(C(=O)NC[C@H](O)CN4CCc5ccccc5C4)ncn3)C2)C1 | 1340 ng/mL |

Next item in the queue.
query: For the compound CON=C(C)C(=O)N1CCC2(CC1)CC(Nc1cc(C(=O)NC[C@H](O)CN3CCc4ccccc4C3)ncn1)C2 , what Cmax is on record?
result: 516 ng/mL
